B1: EHEE_rd4_0726 (parent)
chain: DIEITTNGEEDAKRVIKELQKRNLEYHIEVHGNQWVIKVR

# Variants of: B1
# ASSAY: folding stability dG (cDNA display proteolysis); higher = more stable
# CONDITION LABEL: PBS, room temperature
Reported values of folding stability dG for individual entries
Give just the number in kcal/mol; leave the unit off.

Retrieve folding stability dG measured for K13H and print it.
2.24

Retrieve folding stability dG measured for A12H and print it.
1.01

Retrieve folding stability dG measured for R40N and print it.
1.97

Retrieve folding stability dG measured for V15Y and print it.
1.99

Retrieve folding stability dG measured for N33L and print it.
1.94

Retrieve folding stability dG measured for Y26V and print it.
1.42

Retrieve folding stability dG measured for E29A and print it.
1.71

Retrieve folding stability dG measured for K21M and print it.
2.51

Continuing:
Retrieve folding stability dG measured for Y26T and print it.
0.301

Retrieve folding stability dG measured for A12G and print it.
1.43
